The reader will find reported Cannabinoid content of NTI164, Week 32 values listed item by item below.
test: Stability of NTI164 oil formulation at room temperature (UPLC); details: NTI164 oil, room temperature, Week 32
State just the number; it will be interpreted in mg/mL.

# compound, Cannabinoid content of NTI164, Week 32, mg/mL
records = [
    ("CCCCCc1cc(O)c(C/C=C(\\C)CCC=C(C)C)c(O)c1 [Cannabigerol (CBG), Cannabigerol]", 5.12),
]

Here is another compound to look at.
Task: Respond only with Cannabinoid content of NTI164, Week 32 recorded for C=C(C)[C@@H]1CCC(C)=C[C@H]1c1c(O)cc(CCC)cc1O [Cannabidivarin (CBDV), Cannabidivarin]
Result: 0.13

###

The reader will find reported Cannabinoid content of NTI164, Day 28 values listed item by item below.
experiment: Stability of NTI164 oil formulation at room temperature (UPLC); conditions: NTI164 oil, room temperature, Day 28

# molecule, Cannabinoid content of NTI164, Day 28
records = [
    ("CCCCCc1cc(O)c2c(c1)OC(C)(C)c1ccc(C)cc1-2", "2.56 mg/mL"),
]

Task: Respond only with Cannabinoid content of NTI164, Day 28 recorded for CCCc1cc(O)c2c(c1)OC(C)(C)[C@@H]1CCC(C)=C[C@@H]21 [Tetrahydrocannabivarin (THCV), Tetrahydrocannabivarin]
Result: <0.1 mg/mL

Task: Respond only with Cannabinoid content of NTI164, Day 28 recorded for CCCCCc1cc(O)c2c(c1)OC(C)(C)C1CC=C(C)CC21 (stereo not shown) [DELTA-8-THC (D8-THC), Delta-8-tetrahydrocannabinol]
Result: <0.1 mg/mL

Task: Respond only with Cannabinoid content of NTI164, Day 28 recorded for CCCCCc1cc2c(c(O)c1C(=O)O)[C@@H]1C=C(C)CC[C@H]1C(C)(C)O2 [(Tetrahydrocannabinolic acid) (D9-THCA), Delta-9-tetrahydrocannabinolic acid]
Result: 0.36 mg/mL

###

assay: Stability of NTI164 oil formulation at room temperature (UPLC); settings: NTI164 oil, room temperature, Week 5
endpoint-name: Cannabinoid content of NTI164, Week 5 (mg/mL)
State just the number; it will be interpreted in mg/mL.

# molecule, endpoint-name, result-units, quantitative-readout
measured = [
    ("CCCCCc1cc(O)c2c(c1)OC(C)(CCC=C(C)C)C=C2 (stereo not shown)", "Cannabinoid content of NTI164, Week 5", "mg/mL", 1.20),
    ("CCCCCc1cc(O)c2c(c1)OC(C)(C)[C@@H]1CCC(C)=C[C@@H]21 [Tetrahydrocannabinol (D9-THC), Delta-9-tetrahydrocannabinol]", "Cannabinoid content of NTI164, Week 5", "mg/mL", 0.14),
    ("C=C(C)[C@@H]1CCC(C)=C[C@H]1c1c(O)cc(CCCCC)cc1O", "Cannabinoid content of NTI164, Week 5", "mg/mL", 0.60),
]

Here is another molecule to look at.
Task: Respond only with Cannabinoid content of NTI164, Week 5 recorded for C=C(C)[C@@H]1CCC(C)=C[C@H]1c1c(O)cc(CCC)cc1O
Result: 0.10

###

test: Stability of NTI164 oil formulation at room temperature (UPLC); details: NTI164 oil, room temperature, Day 2
endpoint-name: Cannabinoid content of NTI164, Day 2 (mg/mL)
State just the number; it will be interpreted in mg/mL.

Task: Respond only with Cannabinoid content of NTI164, Day 2 recorded for C=C(C)[C@@H]1CCC(C)=C[C@H]1c1c(O)cc(CCCCC)cc1O
Result: 0.56

Task: Respond only with Cannabinoid content of NTI164, Day 2 recorded for C=C(C)[C@@H]1CCC(C)=C[C@H]1c1c(O)cc(CCCCC)c(C(=O)O)c1O
Result: 48.19

Task: Respond only with Cannabinoid content of NTI164, Day 2 recorded for CCCCCc1cc(O)c2c(c1)OC(C)(CCC=C(C)C)C=C2 (centres unmarked)
Result: 1.19

Task: Respond only with Cannabinoid content of NTI164, Day 2 recorded for CCCCCc1cc(O)c(C/C=C(\C)CCC=C(C)C)c(O)c1C(=O)O
Result: 1.18
